Answer each item with its documented viability.
Assay: MAGI-CCR5 and HeLa-R5-16 cytotoxicity, dose response, cytotoxicity control for HIV-1 fusion inhibitor project, cell-based, MAGI and MAGI-HeLa co-culture (AID 2286);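 also: cells exposed to compound for at least 64 h before ATP readout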;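 as to viability: 100% = median of DMSO vehicle wells with no ATP signal meaning 0%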
Conditions: MAGI-CCR5 cells viability, CellTiter-Glo ATP luminescence; at 50 µM (top of the series)
Your answer is read as %, so omit the unit and give the number.

QUERY: Entry CCOc1cc(/C=C2/C(=N)N3C(=NC2=O)SN=C3S(C)(=O)=O)ccc1OS(=O)(=O)c1ccccc1 has what viability?
RESULT: 81.5

QUERY: Report viability for COc1ccc(C(=O)Nc2ccc(/C(C)=N/NC(=O)c3ccncc3)cc2)cc1 please.
RESULT: 88.5

QUERY: Any idea what its viability is? The compound is Nc1c(S(=O)(=O)O)cc(NC(=O)c2ccccc2)c2c1C(=O)c1ccccc1C2=O
RESULT: 103

QUERY: Can you look up the measured viability of CCc1nnc(NS(=O)(=O)c2ccc(NC(=S)NC(=O)/C=C/c3cccs3)cc2)s1 for me?
RESULT: 93.8

QUERY: I have this compound here, COc1cc(/C=C2\C(=N)N3N=C(S(C)(=O)=O)SC3=NC2=O)ccc1OC(=O)c1ccco1 , and I need its recorded viability.
RESULT: 101

QUERY: # input compound: CCOc1cc(/C=C2/C(=N)N3C(=NC2=O)SN=C3S(=O)(=O)CC)ccc1OC(=O)c1ccco1 ; wanted: its viability
RESULT: 112

QUERY: Quick check: viability of CC(C)(C)CC(C)(C)c1ccc(OCC(=O)N/N=C/c2ccc(S(=O)(=O)O)o2)cc1 ?
RESULT: 87.8

* * *

Kindly state CC50 for each of the entries shown.
System: MAGI-CCR5 cells viability, CellTiter-Glo ATP luminescence
Assay: MAGI-CCR5 and HeLa-R5-16 cytotoxicity, dose response, cytotoxicity control for HIV-1 fusion inhibitor project, cell-based, MAGI and MAGI-HeLa co-culture (AID 2286);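 also: cells exposed to compound for at least 64 h before ATP readout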;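 as to viability: 100% = median of DMSO vehicle wells with no ATP signal meaning 0%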
Details: measured here: MAGI + HeLa-R5-16 co-culture viability

QUERY: CC50 lookup needed for CCc1oc2ccccc2c1C(=O)c1cc(Br)c(O)c(Br)c1 , thanks.
RESULT: > 50 µM

QUERY: Which CC50 is reported for this compound? CCOc1cc(/C=N/N=C2/NC(=O)C(CC(=O)O)S2)ccc1OCc1ccc(Cl)cc1 (centres undefined)
RESULT: > 50 µM

QUERY: I'd like to know its CC50. The compound in question is COc1cc(/C=C2\SC(=O)N(Cc3ccc(Cl)cc3)C2=O)cc([N+](=O)[O-])c1O
RESULT: > 50 µM

QUERY: Look up CC50 for this compound: COc1ccc(-c2nn(-c3ccccc3)cc2/C=C2/SC(=S)N(CCC(=O)O)C2=O)c(C)c1
RESULT: > 50 µM

QUERY: Looking for the measured CC50 of O=C(O)CN1C(=O)/C(=C\c2cc(Br)ccc2OCc2ccc(Cl)cc2)SC1=S , can you help?
RESULT: 48.6 µM

QUERY: Find the recorded CC50 belonging to COc1cc(/C=C2\SC(=O)N(Cc3ccc(F)cc3)C2=O)cc([N+](=O)[O-])c1O and report it.
RESULT: > 50 µM

QUERY: Name the recorded CC50 for O=[N+]([O-])c1cc(Cl)cc(/C=N/NC(=S)Nc2cc(S(=O)(=O)N3CCOCC3)ccc2Cl)c1O .
RESULT: > 50 µM

QUERY: So what's the measured CC50 for this one? CCC(C)(C)C1CCc2c(sc(NC(=O)c3ccccc3C(=O)O)c2C#N)C1 (centres undefined)
RESULT: > 50 µM

QUERY: Look up CC50: COCCN1C(=O)/C(=C/c2ccc(OCc3ccc(C(=O)O)cc3)c(OC)c2)SC1=Nc1ccccc1
RESULT: 35.4 µM

* * *

Assay: MAGI-CCR5 and HeLa-R5-16 cytotoxicity, dose response, cytotoxicity control for HIV-1 fusion inhibitor project, cell-based, MAGI and MAGI-HeLa co-culture (AID 2286);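 also: cells exposed to compound for at least 64 h before ATP readout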;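 as to viability: 100% = median of DMSO vehicle wells with no ATP signal meaning 0%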
Details: MAGI-CCR5 cells viability, CellTiter-Glo ATP luminescence; measured here: MAGI minimum viability across doses; at 25 µM; stronger effect = lower value
Assignment: determine reported minimum viability for the given compounds.
Write the quantity with the unit trailing the number.

QUERY: Can you look up the measured minimum viability of CCCOc1ccc(C(=O)NNC(=S)NC(=O)c2cc(-c3ccccc3)nc3ccccc23)cc1 for me?
RESULT: 99%

QUERY: Need minimum viability, item N#Cc1c(-c2ccccc2)nc(SCC(=O)Nc2ccc(OC(F)(F)Cl)cc2)[nH]c1=O
RESULT: 84.9%

QUERY: What measured minimum viability goes with O=C(O)COc1ccc(/C=N/NC(=O)c2ccc(-c3csc(Nc4ccc(Cl)cc4)n3)cc2)cc1 ?
RESULT: 83.4%

QUERY: // returns reported minimum viability for input C=CCOc1ccc(C(c2c(C(=O)O)[nH]c3ccccc23)c2c(C(=O)O)[nH]c3ccccc23)cc1
RESULT: 85.9%

QUERY: Given the entry O=C(O)COc1ccccc1/C=N/Nc1ccc(S(=O)(=O)Nc2ccc(Cl)cc2)cc1[N+](=O)[O-] , report its measured minimum viability.
RESULT: 90.6%

QUERY: Need minimum viability of O=C(O)CCN1C(=O)/C(=C\c2cccc(Oc3ccccc3)c2)SC1=S , thanks.
RESULT: 86.3%

QUERY: Given the compound CCc1nnc(NS(=O)(=O)c2ccc(NC(=S)NC(=O)/C=C/c3cccs3)cc2)s1 , what is its reported minimum viability?
RESULT: 83.5%

QUERY: Requested read-out: minimum viability. Entry: Cc1ccc(S(=O)(=O)Oc2ccc(/C=C3\C(=N)N4N=C(S(C)(=O)=O)SC4=NC3=O)cc2)cc1
RESULT: 97.1%

QUERY: Would you mind telling me what minimum viability value was observed for CCOC(=O)c1sc(N2C(=O)C(O)=C(C(=O)c3ccc(C)o3)C2c2cccc([N+](=O)[O-])c2)nc1C (stereo not drawn) ?
RESULT: 63.8%

QUERY: Requested read-out: minimum viability. Entry: Cc1cc(N2C(=O)C(O)=C(C(=O)c3cc4ccccc4o3)C2c2cccc(Br)c2)no1 (stereo not drawn)
RESULT: 86.4%

QUERY: Look up minimum viability: CCCCCNC(=O)c1ccc2c(=O)[nH]c3c(C(=O)NCC4CCCO4)sc(=S)n3c2c1 (stereo not drawn)
RESULT: 69.3%

QUERY: Data request, read-out minimum viability, for COc1cc(/C=N/NC(=O)C(Cc2c[nH]c3ccccc23)NC(=O)OCc2ccccc2)cc([N+](=O)[O-])c1O (stereo not drawn)
RESULT: 92.5%

QUERY: Entry under review: CC(C)(C)OC(=O)N1CCC(c2cc(=O)n3[nH]cc(C(=O)Nc4ccc(F)c(Cl)c4)c3n2)CC1 . Reported minimum viability?
RESULT: 88.7%

QUERY: What value of minimum viability has been recorded for this entry: CCCCCOc1ccc(C2C(C(=O)c3ccc(C)o3)=C(O)C(=O)N2c2cc(C)on2)cc1 (stereo not drawn)
RESULT: 84.6%

QUERY: What does the data say about its minimum viability? Entry: N#Cc1c(-c2ccccc2)nc(SCc2cccc(Cl)c2)[nH]c1=O
RESULT: 88%

QUERY: Query (compound): O=C(N/N=C/c1cc(Br)c(O)c(Br)c1)c1cc2c(ccc3ccccc32)o1 ; field requested: minimum viability
RESULT: 81.4%

QUERY: # input compound: Nc1c(S(=O)(=O)O)cc(NC(=O)c2ccccc2)c2c1C(=O)c1ccccc1C2=O ; wanted: its minimum viability
RESULT: 89.2%

QUERY: Bench note: what minimum viability did O=C(O)c1ccc(N2C(=O)/C(=C/c3ccc(-c4ccc([N+](=O)[O-])cc4)o3)C=C2c2ccccc2)cc1 show?
RESULT: 46.8%

* * *

Assay: MAGI-CCR5 and HeLa-R5-16 cytotoxicity, dose response, cytotoxicity control for HIV-1 fusion inhibitor project, cell-based, MAGI and MAGI-HeLa co-culture (AID 2286);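 also: cells exposed to compound for at least 64 h before ATP readout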;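 as to viability: 100% = median of DMSO vehicle wells with no ATP signal meaning 0%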
Settings: MAGI-CCR5 cells viability, CellTiter-Glo ATP luminescence; at 50 µM (top of the series)
Record form. Attribute: viability. Fill in for each entry.
Numeric only. Scale: %

QUERY: Given the compound O=C(O)CN1C(=O)/C(=C\c2cc(Br)ccc2OCc2ccc(F)cc2)SC1=S , what is its reported viability?
RESULT: 97.7

QUERY: For the compound CCS(=O)(=O)C1=NSC2=NC(=O)/C(=C\c3ccc(OS(=O)(=O)c4ccccc4)c(OC)c3)C(=N)N21 , what viability is on record?
RESULT: 80.5

QUERY: Request the reported viability associated with CSc1ccc(C(c2c(C(=O)O)[nH]c3ccccc23)c2c(C(=O)O)[nH]c3ccccc23)cc1
RESULT: 92.8

QUERY: What does the data say about its viability? Entry: COc1cccc(NS(=O)(=O)c2ccc3c(c2)C2C=CCC2C(c2ccc(C(=O)O)cc2)N3)c1 (centres undefined)
RESULT: 108

QUERY: Quick check: viability of O=C(Nc1cc(C(=O)Nc2ccccc2C(=O)O)cc(C(=O)Nc2ccccc2C(=O)O)c1)c1ccccc1 ?
RESULT: 113

QUERY: Any idea what viability was measured for O=C(CCN1C(=O)/C(=C/c2ccco2)SC1=S)Nc1ccc(C(=O)O)c(O)c1 ?
RESULT: 90.6

QUERY: # lookup: viability of O=C(O)CN1C(=O)/C(=C\c2cccc(OCc3ccc(Cl)cc3)c2)SC1=S
RESULT: 83.6

QUERY: Quick one: viability for O=C(O)c1ccc(-c2ccc(/C=c3/sc4nc5ccccc5n4c3=O)o2)cc1Cl ?
RESULT: 92.3

QUERY: # get_value(readout='viability', item= O=C1NC(=O)/C(=C/c2ccc(-c3cc(C(=O)O)ccc3Cl)o2)S1 )
RESULT: 91

QUERY: Return reported viability; argument: O=C(O)c1[nH]c2ccccc2c1C(c1cc(Br)ccc1O)c1c(C(=O)O)[nH]c2ccccc12
RESULT: 85.4

QUERY: Any idea what its viability is? The compound is CC(C)CS(=O)(=O)C1=NN2C(=N)/C(=C\c3ccc(OC(=O)c4ccco4)cc3)C(=O)N=C2S1
RESULT: 96.6

QUERY: Which viability is listed for O=C(O)C(c1ccccc1)N1C(=O)/C(=C\c2ccc(O)c(O)c2)SC1=S (centres undefined) ?
RESULT: 105

QUERY: Recorded viability of COc1cc(/C=C2\C(=N)N3N=C(S(C)(=O)=O)SC3=NC2=O)ccc1OS(=O)(=O)c1ccccc1 , please.
RESULT: 91.8

QUERY: // viability lookup, key: O=C(CCN1C(=O)/C(=C/c2ccccc2Cl)SC1=S)Nc1ccccc1C(=O)O
RESULT: 98.3

QUERY: Reported viability for O=C(O)c1cc(-c2ccc(/C=C3\NC(=O)N(c4ccc(Cl)cc4)C3=O)o2)ccc1Cl : what is it?
RESULT: 102

QUERY: Tell me the measured viability of CCOC(=O)c1sc(N2C(=O)C(O)=C(C(=O)c3ccco3)C2c2cccc([N+](=O)[O-])c2)nc1C (centres undefined) , please.
RESULT: 83.5

QUERY: viability lookup needed for O=C(CSc1nc2ccccc2c(=O)n1Cc1ccccc1)Nc1ccc(Br)cc1C(=O)O , thanks.
RESULT: 87.7

QUERY: Would you kindly share the measured viability for CN1C(=O)/C(=C/c2ccc(C(=O)Nc3ccc(O)cc3C(=O)O)cc2)SC1=S ?
RESULT: 91

QUERY: For the compound Oc1c(Br)cc(Br)c(/C=N/n2c(-c3ccccc3)n[nH]c2=S)c1Br , what viability is on record?
RESULT: 90.8
